The reported numbers originate from patent US11174250B2.

Each entry below carries its recorded Kd.
targetOrTestSystem: WDR5 protein (Homo sapiens (Human))
assayDetails: Surface Plasmon Resonance (SPR) assay
Type: binding
experimentalConditions: SPR, Table 1; read-out: WDR5 binding affinity (KD)

Use the examples below as a reference point.
COc1cc(C(F)(F)F)c(C(=O)Nc2cc(-c3cc(CN4CCC(N5CCOCC5)CC4)ccc3F)ccc2N2CCN(C)CC2)cn1 | > 200 nM
CNc1cc(C(F)(F)F)c(C(=O)Nc2cc(-c3cc(CN4CCOCC4)ccc3F)ccc2N2CCN(C)CC2)cn1 | > 200 nM

Prompt line: Please give the measured Kd for this compound: COc1cc(C(F)(F)F)c(C(=O)Nc2cc(-c3cc(CN4CCC(C(C)C)C4)ccc3F)ccc2N2CCN(C)CC2)cn1 (stereo in doubt)
Response line: > 200 nM

Prompt line: Can you check CN1CCN(c2ccc(-c3cc(CN4CCOCC4)ccc3F)cc2NC(=O)c2c[nH]c(=O)cc2C(F)(F)F)CC1COC(=O)C(C)(C)C (centres unmarked) next?
Response line: > 200 nM

Prompt line: Can you check `COc1cc(C(F)(F)F)c(C(=O)Nc2cc(-c3cc(CN4CCC(F)CC4)ccc3F)ccc2N2CCN(C)CC2)cn1` next?
Response line: > 200 nM

###

targetOrTestSystem: MLL1-WRAD2 complex (Homo sapiens (Human), UniProt P61964)
assayDetails: MLL1-WRAD2 enzyme assay (in vitro methyl transferase assay)
Format: biochemical
experimentalConditions: MLL1-WRAD2 assay; read-out: In vitro MLL1 activity (IC50)
pIC50: −log10 of the molar value.
measureName: pIC50

[A] CN1CCN(c2ccc(-c3ccc(CN4CCOCC4)cc3F)cc2NC(=O)c2c[nH]c(=O)cc2C(F)(F)F)CC1
[B] C[C@@H]1CN(c2ccc(-c3nc(N4CCOCC4)ncc3F)cc2NC(=O)c2c[nH]c(=O)cc2C(F)(F)F)C[C@H](C)N1C
[C] C[C@@H]1CN(c2ccc(-c3cc(CN(C)C4COC4)c(F)cc3F)cc2NC(=O)c2c[nH]c(=O)cc2C(F)(F)F)C[C@H](C)N1C
[D] CN1CCN(c2ccc(-c3ccc(CNC4CCCC4)cc3F)cc2NC(=O)c2c[nH]c(=O)cc2C(F)(F)F)CC1
Prompt line: Quick favor: sort the compounds up above by pIC50, largest first. Answer by writing out the labels in the requested order.
Response line: B, C, A, D

###

targetOrTestSystem: WDR5 protein (Homo sapiens (Human))
assayDetails: Surface Plasmon Resonance (SPR) assay
Assay type: binding
experimentalConditions: SPR, Table 2; read-out: WDR5 binding affinity SPR (KD)
pKd: −log10 of the molar value.
measureName: pKd

Use the examples below as a reference point.
CN1CCN(c2ccc(-c3cc(CN4CCOCC4)ccc3F)c(F)c2NC(=O)c2c[nH]c(=O)cc2C(F)(F)F)CC1 | 7.85
CN1CCN(c2ccc(-c3cc(OCC4CC4)ncc3F)cc2NC(=O)c2c[nH]c(=O)cc2C(F)(F)F)CC1 | 8.05

[P] CN1CCN(c2ccc(-c3cc(OC4CCOCC4)ncc3F)cc2NC(=O)c2c[nH]c(=O)cc2C(F)(F)F)CC1
[Q] C[C@@H]1CN(c2ccc(-c3ccc(C(N)=O)c(F)c3F)cc2NC(=O)c2c[nH]c(=O)cc2C(F)(F)F)C[C@H](C)N1C
Prompt line: Which is greater in pKd, the first item P or the second item Q ? // caller expects the label of the chosen entry
Response line: Q

[1] CN1CCN(c2ccc(-c3cc(CN(C)C4COC4)ccc3F)cc2NC(=O)c2c[nH]c(=O)cc2C(F)(F)F)CC1
[2] C[C@@H]1CN(c2ccc(-c3ccc(F)c(CN(C)C4COC4)c3F)cc2NC(=O)c2c[nH]c(=O)cc2C(F)(F)F)C[C@H](C)N1C
[3] CN1CCN(c2ccc(-c3cc(CN4CCOCC4)ccc3F)cc2NC(=O)c2ccc(=O)[nH]c2)CC1
[4] CC1CN(c2ccc(-c3cc(C(=O)NC4CCCCC4)ccc3F)cc2NC(=O)c2c[nH]c(=O)cc2C(F)(F)F)CC(C)N1C (stereo not shown)
Prompt line: Arrange the 4 compounds from largest to smallest pKd. Answer by writing out the labels in the requested order.
Response line: 4, 1, 2, 3

###

targetOrTestSystem: WDR5 protein (Homo sapiens (Human))
assayDetails: Surface Plasmon Resonance (SPR) assay
Type: binding
experimentalConditions: SPR, Table 1; read-out: WDR5 binding affinity (KD)
measureName: Kd (nM)

[a] C[C@H]1CN(C)CCN1c1ccc(-c2cc(CN3CCOCC3)ccc2F)cc1NC(=O)c1c[nH]c(=O)cc1C(F)(F)F
[b] CN1CCN(c2ccc(-c3cc(CN4CCOCC4)ccc3F)cc2NC(=O)c2cc(O)cc(F)c2F)CC1
Prompt line: Which is greater in Kd, the first item a or the second item b ? // caller expects the label of the chosen entry
Response line: a

###

targetOrTestSystem: MLL1-WRAD2 complex (Homo sapiens (Human))
assayDetails: MLL1-WRAD2 enzyme assay (in vitro methyl transferase assay)
Type: biochemical
experimentalConditions: MLL1-WRAD2 assay; read-out: In vitro MLL1 activity (IC50)
Method: Reaction was initiated with 1 μM 3H-SAM and incubated for 1 hour at 30° C. Reaction mixture was transferred to P81 filter-paper and washed with PBS before detection.
measureName: IC50 (µM)

Use the examples below as a reference point.
CN1CCN(c2ccc(-c3cc(CN4CCOCC4)ccc3F)cc2NC(=O)c2c[nH]c(=O)cc2C(F)F)CC1 | 1.57
C[C@@H]1CN(c2ccc(-c3ccc(OCC4CC4)nc3F)cc2NC(=O)c2c[nH]c(=O)cc2C(F)(F)F)C[C@H](C)N1C | 0.549
CC(C)COc1ccc(F)c(-c2ccc(N3CCN(C)CC3)c(NC(=O)c3c[nH]c(=O)cc3C(F)(F)F)c2)c1 | 2.51
CN1CCN(c2ccc(-c3cc(CNC4CCOCC4)ccc3F)cc2NC(=O)c2c[nH]c(=O)cc2C(F)(F)F)CC1 | 1.3

[I] CN1CCN(c2ccc(-c3cc(CN4CCOCC4)ccc3F)cc2NC(=O)c2c[nH]c(=O)cc2C(F)(F)F)CC1CO (stereo not shown)
[II] CN1CCN(c2ccc(-c3cc(CN4CC[C@@H](N(C)C)C4)ccc3F)cc2NC(=O)c2c[nH]c(=O)cc2C(F)(F)F)CC1
Prompt line: // compare measured IC50 between I and II ; output the lower one // caller expects the label of the chosen entry
Response line: II

[a] CN1CCN(c2ccc(-c3cc(CN4CCOCC4)ccc3F)cc2NC(=O)c2cc(O)cc(F)c2F)CC1
[b] C[C@@H]1CN(c2ccc(-c3cc(C(=O)NC4CCCCC4)ccc3F)cc2NC(=O)c2c[nH]c(=O)cc2C(F)(F)F)C[C@H](C)N1C
Prompt line: Which is greater in IC50, the first item a or the second item b ? // caller expects the label of the chosen entry
Response line: a

[A] CN1CCN(c2ccc(-c3cc(CN(C)C4CCCCC4)ccc3F)cc2NC(=O)c2c[nH]c(=O)cc2C(F)(F)F)CC1
[B] CN(C)C1CCN(c2ccc(-c3cc(CN4CCOCC4)ccc3F)cc2NC(=O)c2c[nH]c(=O)cc2C(F)(F)F)C1 (stereo not shown)
[C] CC1CN(c2ccc(-c3cc(C(=O)NC4CCCCC4)ccc3F)cc2NC(=O)c2c[nH]c(=O)cc2C(F)(F)F)CC(C)N1C (stereo not shown)
[D] C[C@@H]1CN(c2ccc(-c3cc(C(=O)N4CCOCC4)ccc3F)cc2NC(=O)c2c[nH]c(=O)cc2C(F)(F)F)C[C@H](C)N1C
Prompt line: Reorder the items by IC50, least to greatest. Answer by writing out the labels in the requested order.
Response line: C, A, D, B

[A] COCOc1cc(F)c(-c2ccc(N3CCN(C)CC3)c(NC(=O)c3c[nH]c(=O)cc3C(F)(F)F)c2)cc1C(=O)NC(C)(C)CC(C)(C)C
[B] CN1CCN(c2ccc(-c3ccc(OCC4CC4)nc3F)cc2NC(=O)c2c[nH]c(=O)cc2C(F)(F)F)CC1
Prompt line: // compare measured IC50 between A and B ; output the lower one // caller expects the label of the chosen entry
Response line: A

###

targetOrTestSystem: WDR5 protein (Homo sapiens (Human), UniProt P61964)
assayDetails: Surface Plasmon Resonance (SPR) assay
Type: binding
experimentalConditions: SPR, τ=1/koff; read-out: Residence Time (t, min)
measureName: residence time (min)

[P] Cc1cc(C(=O)Nc2cc(-c3cc(CN4CCOCC4)ccc3F)ccc2N2CCN(C)CC2)ccc1F
[Q] CN1CCN(c2ccc(-c3cc(CN4CCOCC4)ccc3F)cc2NC(=O)c2ccc(O)cc2C(F)(F)F)CC1
[R] C[C@@H]1CN(c2ccc(-c3cc(C(N)=O)ccc3F)cc2NC(=O)c2c[nH]c(=O)cc2C(F)(F)F)C[C@H](C)N1C
[S] C[C@@H]1CN(c2ccc(-c3c(F)ccc(CNC4CCCCC4)c3F)cc2NC(=O)c2c[nH]c(=O)cc2C(F)(F)F)C[C@H](C)N1C
Prompt line: Quick favor: sort the compounds up above by residence time, largest first. Answer by writing out the labels in the requested order.
Response line: S, R, Q, P
